The measurements presented in this section are drawn from patent US8735322B2.

tested on: Lolium perenne (LOLPE); test: Example A pre-emergence herbicidal activity, glasshouse pot test; type: in vivo; conditions: 480 h, rate 500 g/ha, evaluated 20 days later, 100=total damage to plant, 0=no damage to plant
READOUT: pest or weed control at 500 g/ha (%)

MOLECULE | READING UNIT | QUANTITATIVE READOUT
CCc1cc(C)cc(CC)c1C1=C(O)CC(CC2CCOC2)CC1=O (stereo not drawn) | % | 100
CCc1cc(C)cc(CC)c1C1=C(O)CC(C(C)C2CCOCC2)CC1=O (stereo not drawn) | % | 100
Cc1cc(C)c(C2=C(O)CC(CC3CCOCC3)CC2=O)c(C)c1 (stereo not drawn) | % | 100
CCc1cc(C)cc(CC)c1C1=C(O)CC(C(C)C2CCOC2)CC1=O (stereo not drawn) | % | 100
CCc1cc(CC)c(C2=C(O)CC(C(C)C3CCOCC3)CC2=O)c(CC)c1 (stereo not drawn) | % | 100
CCc1ccc(-c2ccc(Cl)cc2)cc1C1=C(O)CC(CC2CCOC2)CC1=O (stereo not drawn) | % | 30
Cc1ccc(-c2ccc(Cl)cc2)cc1C1=C(O)CC(C(C)C2CCOCC2)CC1=O (stereo not drawn) | % | 0
Cc1cc(C)c(C2=C(OC(=O)C(C)(C)C)CC(CC3CCOC3)CC2=O)c(C)c1 (stereo not drawn) | % | 90
CCc1cc(C)cc(CC)c1C1=C(O)CC(CC2OCC(C)(C)CO2)CC1=O (stereo not drawn) | % | 100
CCc1cc(C)cc(CC)c1C1=C(O)CC(CC2OCCO2)CC1=O (stereo not drawn) | % | 70
Cc1cc(C)c(C2=C(O)CC(CC3CCOC3)CC2=O)c(C)c1 (stereo not drawn) | % | 80
CCc1cc(C)cc(CC)c1C1=C(O)CC(CC2CCSCC2)CC1=O (stereo not drawn) | % | 90
CCc1ccc(-c2ccc(Cl)cc2)cc1C1=C(O)CC(CC2CCOCC2)CC1=O (stereo not drawn) | % | 40
CCc1ccccc1C1=C(O)CC(CC2CCOCC2)CC1=O (stereo not drawn) | % | 40
Cc1ccc(-c2ccc(Cl)cc2)cc1C1=C(O)CC(CC2CCOC2)CC1=O (stereo not drawn) | % | 10
CCc1cc(C)cc(CC)c1C1=C(O)CC(CC2OCCCO2)CC1=O (stereo not drawn) | % | 100
Cc1cc(C)c(C2=C(O)CC(C(C)C3CCOCC3)CC2=O)c(C)c1 (stereo not drawn) | % | 70
CCc1cc(CC)c(C2=C(O)CC(CC3CCOCC3)CC2=O)c(CC)c1 (stereo not drawn) | % | 100

* * *

system: Setaria faberi (SETFA); assay: Example A pre-emergence herbicidal activity, glasshouse pot test; assay type: in vivo; settings: 480 h, rate 500 g/ha, evaluated 20 days later, 100=total damage to plant, 0=no damage to plant
The following compounds are listed with their measured pest or weed control at 500 g/ha values.

COMPOUND | pest or weed control at 500 g/ha [%]
CCc1cc(C)cc(CC)c1C1=C(O)CC(CC2OCCCO2)CC1=O (centres unmarked) | 80
CCc1ccc(-c2ccc(Cl)cc2)cc1C1=C(O)CC(C(C)C2CCOCC2)CC1=O (centres unmarked) | 30
Cc1cc(C)c(C2=C(O)CC(CC3CCOCC3)CC2=O)c(C)c1 (centres unmarked) | 90
CCc1ccc(-c2ccc(Cl)cc2)cc1C1=C(O)CC(CC2CCOCC2)CC1=O (centres unmarked) | 70
CCc1cc(CC)c(C2=C(O)CC(C(C)C3CCOCC3)CC2=O)c(CC)c1 (centres unmarked) | 60
Cc1cc(C)c(C2=C(OC(=O)C(C)(C)C)CC(CC3CCOC3)CC2=O)c(C)c1 (centres unmarked) | 80
CCc1cc(C)cc(CC)c1C1=C(O)CC(CC2OCCO2)CC1=O (centres unmarked) | 80
CCc1cc(C)cc(CC)c1C1=C(O)CC(CC2OCC(C)(C)CO2)CC1=O (centres unmarked) | 70

* * *

system: Lolium perenne (LOLPE); experiment: Example A pre-emergence herbicidal activity, glasshouse pot test; format: in vivo; details: 480 h, rate 500 g/ha, evaluated 20 days later, 100=total damage to plant, 0=no damage to plant

MOLECULE | pest or weed control at 500 g/ha, %
CCc1cc(C)cc(CC)c1C1=C(O)CC(CC2CCOCC2)CC1=O (stereo not shown) [Compound A-5] | 100
CCc1ccc(-c2ccc(Cl)cc2)cc1C1=C(O)CC(C(C)C2CCOCC2)CC1=O (stereo not shown) [Compound A-13] | 10
CCc1cc(C)cc(CC)c1C1=C(O)CC(CC2CCS(=O)(=O)CC2)CC1=O (stereo not shown) [Compound A-17] | 100
CCc1cc(C)cc(CC)c1C1=C(O)CC(CC2CC[S+]([O-])CC2)CC1=O (stereo not shown) [Compound A-16] | 100

* * *

system: Alopecurus myosuroides (ALOMY); assay: Example A post-emergence herbicidal activity, glasshouse pot test; format: in vivo; conditions: 360 h, rate 500 g/ha, evaluated 15 days after spraying, read-out: herbicidal damage ALOMY (100=total damage to plant; 0=no damage to plant)
Rule: pest or weed control at 500 g/ha under 80% gives criterion not met, otherwise criterion met.

COMPOUND | TESTED ON | CLASSIFICATION
CCc1cc(C)cc(CC)c1C1=C(O)CC(CC2CCSCC2)CC1=O (centres unmarked) | Alopecurus myosuroides (ALOMY) | criterion met
CCc1cc(C)cc(CC)c1C1=C(O)CC(CC2CC[S+]([O-])CC2)CC1=O (centres unmarked) | Alopecurus myosuroides (ALOMY) | criterion not met
CCc1cc(C)cc(CC)c1C1=C(O)CC(CC2CCOCC2)CC1=O (centres unmarked) | Alopecurus myosuroides (ALOMY) | criterion met
Cc1ccc(-c2ccc(Cl)cc2)cc1C1=C(O)CC(CC2CCOC2)CC1=O (centres unmarked) | Alopecurus myosuroides (ALOMY) | criterion not met
Cc1ccc(-c2ccc(Cl)cc2)cc1C1=C(O)CC(C(C)C2CCOCC2)CC1=O (centres unmarked) | Alopecurus myosuroides (ALOMY) | criterion not met
Cc1cc(C)c(C2=C(O)CC(CC3CCOC3)CC2=O)c(C)c1 (centres unmarked) | Alopecurus myosuroides (ALOMY) | criterion not met
Cc1cc(C)c(C2=C(OC(=O)C(C)(C)C)CC(CC3CCOC3)CC2=O)c(C)c1 (centres unmarked) | Alopecurus myosuroides (ALOMY) | criterion not met
CCc1cc(C)cc(CC)c1C1=C(O)CC(CC2OCCCO2)CC1=O (centres unmarked) | Alopecurus myosuroides (ALOMY) | criterion met
CCc1cc(C)cc(CC)c1C1=C(O)CC(CC2OCC(C)(C)CO2)CC1=O (centres unmarked) | Alopecurus myosuroides (ALOMY) | criterion not met
CCc1cc(C)cc(CC)c1C1=C(O)CC(C(C)C2CCOCC2)CC1=O (centres unmarked) | Alopecurus myosuroides (ALOMY) | criterion met

* * *

test system: Alopecurus myosuroides (ALOMY); assay: Example B pre-emergence herbicidal activity, glasshouse pot test; assay type: in vivo; conditions: 312 h, rate 1000 g/ha, evaluated after 13 days, read-out: herbicidal damage ALOMY (100=total damage to plant; 0=no damage to plant)

COMPOUND | pest or weed control at 1000 g/ha / %
Cc1ccc(-c2ccc(Cl)cc2)cc1C1=C(O)CC(CC2OCC(C)CO2)CC1=O (stereo not shown) [Compound A-64] | 0
Cc1ccc(-c2ccc3c(c2)OCCO3)cc1C1=C(O)CC(CC2CCOCC2)CC1=O (stereo not shown) [Compound A-54] | 60
CCc1cc(-c2ccc(C)cc2)cc(CC)c1C1=C(O)CC(CC2CCOCC2)CC1=O (stereo not shown) [Compound A-33] | 50
CCc1ccc(-c2ccc(Cl)cc2)cc1C1=C(O)CC(CC2OCCO2)CC1=O (stereo not shown) [Compound A-45] | 60
Cc1cc(-c2ccc(Cl)cc2)cc(C)c1C1=C(O)CC(CC2CCOCC2)CC1=O (stereo not shown) [Compound A-37] | 80
Cc1ccc(-c2ccc3c(c2)OCO3)cc1C1=C(O)CC(CC2CCOCC2)CC1=O (stereo not shown) [Compound A-53] | 0
Cc1cc(-c2ccc(C(F)(F)F)cc2)cc(C)c1C1=C(O)CC(CC2CCOCC2)CC1=O (stereo not shown) [Compound A-38] | 30
CCc1cc(-c2ccc(Cl)cc2)cc(CC)c1C1=C(O)CC(CC2CCOCC2)CC1=O (stereo not shown) [Compound A-34] | 50
Cc1ccc(-c2ccc(Cl)cc2)cc1C1=C(O)CC(CC2OCC(CC3CCOCC3)O2)CC1=O (stereo not shown) [Compound A-60] | 0
Cc1ccc(-c2ccc(F)c(F)c2)cc1C1=C(O)CC(CC2CCOCC2)CC1=O (stereo not shown) [Compound A-40] | 0

* * *

test system: Avena fatua (AVEFA); assay: Example B post-emergence herbicidal activity, glasshouse pot test; assay type: in vivo; conditions: 312 h, rate 1000 g/ha, evaluated after 13 days, read-out: herbicidal damage AVEFA (100=total damage to plant; 0=no damage to plant)
Please use class 1 for pest or weed control at 1000 g/ha under 70% and class 0 for everything else, ties included.

COMPOUND | CLASSIFICATION
Cc1ccc(-c2cccnc2OCC2CC2)cc1C1=C(O)CC(CC2CCOCC2)CC1=O (stereo not shown) [Compound A-27] | class 1
Cc1ccc(-c2ccc(Cl)cc2)cc1C1=C(O)CC(CC2O[C@H]3COC[C@H]3O2)CC1=O (stereo partly shown) [Compound A-61] | class 0
COCC1COC(CC2CC(=O)C(c3cc(-c4ccc(Cl)cc4)ccc3C)=C(O)C2)O1 (stereo not shown) [Compound A-63] | class 0
Cc1ccc(-c2ccc(Cl)cc2)cc1C1=C(O)CC(CC2OCCCCO2)CC1=O (stereo not shown) [Compound A-62] | class 0
Cc1ccc(-c2ccc(Cl)cc2)cc1C1=C(O)CC(CC2OCCO2)CC1=O (stereo not shown) [Compound A-46] | class 0
Cc1ccc(-c2ccc(Cl)cc2)cc1C1=C(O)CC(CC2OCC(C3CCOCC3)O2)CC1=O (stereo not shown) [Compound A-59] | class 1
CCc1ccccc1C1=C(O)CC(CC2CCOCC2)CC1=O (stereo not shown) [Compound A-31] | class 0
Cc1ccc(-c2ccc3c(c2)OCCO3)cc1C1=C(O)CC(CC2CCOCC2)CC1=O (stereo not shown) [Compound A-54] | class 1
Cc1ccc(-c2ccc(OC(F)(F)F)cc2)cc1C1=C(O)CC(CC2CCOCC2)CC1=O (stereo not shown) [Compound A-29] | class 1
Cc1ccc(-c2ccc(Cl)cc2)cc1C1=C(O)CC(CC2OCC3(CCOCC3)O2)CC1=O (stereo not shown) [Compound A-58] | class 1
CCC1(CC)COC(CC2CC(=O)C(c3cc(-c4ccc(Cl)cc4)ccc3C)=C(O)C2)OC1 (stereo not shown) [Compound A-57] | class 1
CCc1ccc(-c2ccc(Cl)cc2)cc1C1=C(O)CC(CC2OCCO2)CC1=O (stereo not shown) [Compound A-45] | class 0
Cc1ccc(-c2ccc3c(c2)OCO3)cc1C1=C(O)CC(CC2CCOCC2)CC1=O (stereo not shown) [Compound A-53] | class 1
Cc1ccc(-c2ccc(Cl)cc2)cc1C1=C(O)CC(CC2OCC(C)CO2)CC1=O (stereo not shown) [Compound A-64] | class 0
Cc1ccc(-c2ccc(Cl)cc2)cc1C1=C(O)CC(CC2OCC(C)(C)CO2)CC1=O (stereo not shown) [Compound A-56] | class 1
CCc1cc(-c2ccc(Cl)cc2)cc(CC)c1C1=C(O)CC(CC2CCOCC2)CC1=O (stereo not shown) [Compound A-34] | class 0
Cc1ccc(-c2ccc(F)cc2)cc1C1=C(O)CC(CC2CCOCC2)CC1=O (stereo not shown) [Compound A-39] | class 0
